All figures here come from patent US20090118274A1.

# assayed-target: Recombinant human cathepsin S (CatS) (Homo sapiens)
# Construct: made in house
# Sequence (P25774 115-331): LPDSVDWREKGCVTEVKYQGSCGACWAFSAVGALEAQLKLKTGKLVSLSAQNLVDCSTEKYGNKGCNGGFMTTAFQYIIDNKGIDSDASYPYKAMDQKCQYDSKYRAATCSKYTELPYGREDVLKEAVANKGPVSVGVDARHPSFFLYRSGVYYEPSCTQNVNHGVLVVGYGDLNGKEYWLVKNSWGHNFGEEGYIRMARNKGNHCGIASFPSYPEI
# experiment: Recombinant human cathepsin S (CatS) fluorogenic substrate inhibition assay
# Assay type: biochemical
# cond: average of results obtained; substrate Z-Valine-Valine-Arginine-AMC 10 μM, pH 5.0; read-out: CatS IC50
measured-metric: pIC50
# pIC50 = -log10(concentration in molar units)

Identify the measured pIC50 of CC(=O)N1CCC(C(=O)NCc2cc(-c3nn(CC(O)CN4CCCC4)c4c3CN(S(C)(=O)=O)CC4)ccc2C(F)(F)F)CC1 (stereo not drawn) for Recombinant human cathepsin S (CatS) (Homo sapiens).
5.99

Hello, I am looking for reported pIC50 with Recombinant human cathepsin S (CatS) (Homo sapiens) for CS(=O)(=O)N1CCc2c(c(-c3ccc(C(F)(F)F)c(CNC(=O)c4ccc(F)cc4)c3)nn2CCCN2CCC(O)C2)C1 (stereo not drawn) . Could you help?
7.05

Value wanted: pIC50 (Recombinant human cathepsin S (CatS) (Homo sapiens)) of entry CS(=O)(=O)N1CCc2c(c(-c3ccc(Cl)c(CNC(=O)c4ccccc4)c3)nn2CC(O)CN2CCCCC2)C1 (stereo not drawn)
6.10

Recall the recorded pIC50 for CS(=O)(=O)N1CCc2c(c(-c3ccc(C(F)(F)F)c(CNC(=O)c4ccc(F)cc4)c3)nn2CC(O)CN2CCS(=O)(=O)CC2)C1 (stereo not drawn) with Recombinant human cathepsin S (CatS) (Homo sapiens) and state it.
6.26

Form field - read-out: pIC50; system: Recombinant human cathepsin S (CatS) (Homo sapiens); submitted item: CS(=O)(=O)N1CCc2c(c(-c3ccc(C(F)(F)F)c(CNC(=O)c4cc5ccccc5s4)c3)nn2CC(O)CN2CCC3(CCNC3=O)CC2)C1 (stereo not drawn)
6.57

Form field: pIC50 recorded for CC(C)=CC(=O)NCc1cc(-c2nn(CC(O)CN3CCC(N(C)C)CC3)c3c2CN(S(C)(=O)=O)CC3)ccc1C(F)(F)F (stereo not drawn) with Recombinant human cathepsin S (CatS) (Homo sapiens) (enter value)
6.59
